System: human PBMCs
Experiment: Human PBMC cytokine response assay (IFN-γ and IFN-α in cell-free medium by ELISA), with or without cPLGA
Type: cell-based
Details: donor 28066; 20 ug/ml, 24 h; + PLGA = premixed with 100 μg/ml cPLGA
Recorded Metric: IFN-γ (pg/ml) 28066 (pg/mL)

1. 5′-TCGTCG-3′-HEG-5′-AACGTT-3′-HEG-5′-AGATGAT-3′ [Compound C-23]
5
2. 5′-TCGTCG-3′-C12-5′-ACGTTCG-3′-C12-5′-AGATGAT-3′ [Compound C-19]
8
3. 5′-TCGTCG-3′ [Compound P-2, reference compound]
1
4. 5′-TCGTCGA-3′-HEG-5′-TCGTCGA-3′-HEG-5′-TCGTCGA-3′ [Compound C-21]
16
5. 5′-TCGTCGA-3′-HEG-5′-ACGTTCG-3′-HEG-5′-AGATGAT-3′ [Compound C-8]
19
6. 5′-TCGTCG-3′-HEG-5′-ACGTTCG-3′-HEG-5′-AGATGAT-3′ [Compound C-10]
9
7. 5′-ACGTTCG-3′ [Compound P-3, reference compound]
27

====

Recorded measurements of cpm1, one per entry
Test system: PBMCs
Experiment: Human PBMC proliferation assay (3H-thymidine incorporation)
Format: cell-based
Settings: Donor 146, 2 μg/ml, Experiment A
Recorded Metric: cpm1 (cpm)

1. 5′-TCGTCGA-3′-HEG-5′-ACGTTCG-3′-HEG-5′-AGATGAT-3′ [Compound C-8]
47202
2. 5′-TGCTGC-3′-HEG-5′-AGCTTGC-3′-HEG-5′-AGATGAT-3′ [Compound M-1, reference compound]
8753
3. 5′-TCGTCGA-3′ [Compound P-1, reference compound]
9724
4. (5′-TCGTCGA-3′)2-glycerol-5′-TCGTCGA-3′ [Compound C-28]
94977

====

Tested on: human PBMCs
Assay: Human PBMC cytokine response assay (IFN-γ and IFN-α in cell-free medium by ELISA), with or without cPLGA
Assay type: cell-based
Details: Table 9; donor 28098
Strand notation (5' to 3'): a small letter for the sugar, then the base; units joined by * are phosphorothioate-linked, units joined directly phosphodiester-linked; [ ] holds rarer units or linkages, { } end groups; capitals alone tell only the bases. d = 2'-deoxy (DNA)
Recorded measurements of IFN-γ, one per entry
Recorded Metric: IFN-γ (pg/mL)

1) 5′-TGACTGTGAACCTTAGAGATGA-3′ (SEQ ID NO: 3) (dT*dG*dA*dC*dT*dG*dT*dG*dA*dA*dC*dC*dT*dT*dA*dG*dA*dG*dA*dT*dG*dA) [Compound P-7, negative control, reference compound]
0
2) HEG-5′-TCGTCG-3′-HEG-5′-ACGTTCG-3′-HEG-5′-AGATGAT-3′-TEG [Compound C-30]
12
3) HEG-5′-TCGTCG-3′-HEG-5′-ACGTTCG-3′-HEG-5′-AGATGAT-3′-TEG (phosphodiester linkages) [Compound C-31]
0
4) 5′-TCGTCGA-3′-HEG-5′-TCGTCGA-3′-HEG-5′-TCGTCGA-3′ [Compound C-21]
218

====

Test system: human PBMCs
Assay: Human PBMC cytokine response assay (IFN-γ and IFN-α in cell-free medium by ELISA), with or without cPLGA
Type: cell-based
Conditions: Table 9; donor 28099
Strand notation (5' to 3'): a small letter for the sugar, then the base; units joined by * are phosphorothioate-linked, units joined directly phosphodiester-linked; [ ] holds rarer units or linkages, { } end groups; capitals alone tell only the bases. d = 2'-deoxy (DNA)
Recorded measurements of IFN-γ, one per entry
Recorded Metric: IFN-γ

1) (5′-TCGTCGA-3′)2-glycerol-5′-TCGTCGA-3′ [Compound C-28]
45 pg/mL
2) (5′-TCGTCGA-3′-HEG)2-glycerol-HEG-5′-TCGTCGA-3′ (phosphodiester) [Compound C-93]
3 pg/mL
3) 5′-TCGTCG-3′-HEG-5′-ACGTTCG-3′-HEG-5′-AGATGAT-3′ [Compound C-10]
140 pg/mL
4) HEG-5′-TCGTCG-3′-HEG-5′-ACGTTCG-3′-HEG-5′-AGATGAT-3′-TEG [Compound C-30]
20 pg/mL
5) 5′-TCGTCGA-3′-C3-5′-TCGTCGA-3′-C3-5′-TCGTCGA-3′ all phosphorothioate linkages [Compound C-33]
3 pg/mL
6) HEG-5′-TCGTCG-3′-HEG-5′-ACGTTCG-3′-HEG-5′-AGATGAT-3′-TEG (phosphodiester linkages) [Compound C-31]
2 pg/mL
7) 5′-TCGTCGA-3′-HEG-5′-ACGTTCG-3′-HEG-5′-AGATGAT-3′ [Compound C-8]
116 pg/mL
8) 5′-TCGTCG-3′-HEG-5′-ACGTTCG-3′-HEG-5′-AGATGAT-3′-TEG [Compound C-29]
177 pg/mL
9) 5′-TCGTCG-3′-HEG-5′-TCGTCG-3′-HEG-5′-TCGTCG-3′ [Compound C-22]
91 pg/mL
10) 5′-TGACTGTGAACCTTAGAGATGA-3′ (SEQ ID NO: 3) (dT*dG*dA*dC*dT*dG*dT*dG*dA*dA*dC*dC*dT*dT*dA*dG*dA*dG*dA*dT*dG*dA) [Compound P-7, negative control, reference compound]
2 pg/mL
11) 5′-TCGTCGA-3′-HEG-5′-TCGTCGA-3′-HEG-5′-TCGTCGA-3′ [Compound C-21]
124 pg/mL

Cited source for all entries: patent US9028845B2
